study-system: T1, orthogonal hCD122 receptor (hoRb), hCD122 with H133D and Y134F (human, UniProt P14784 27-550); note: reference of the scale not given here
T1 sequence: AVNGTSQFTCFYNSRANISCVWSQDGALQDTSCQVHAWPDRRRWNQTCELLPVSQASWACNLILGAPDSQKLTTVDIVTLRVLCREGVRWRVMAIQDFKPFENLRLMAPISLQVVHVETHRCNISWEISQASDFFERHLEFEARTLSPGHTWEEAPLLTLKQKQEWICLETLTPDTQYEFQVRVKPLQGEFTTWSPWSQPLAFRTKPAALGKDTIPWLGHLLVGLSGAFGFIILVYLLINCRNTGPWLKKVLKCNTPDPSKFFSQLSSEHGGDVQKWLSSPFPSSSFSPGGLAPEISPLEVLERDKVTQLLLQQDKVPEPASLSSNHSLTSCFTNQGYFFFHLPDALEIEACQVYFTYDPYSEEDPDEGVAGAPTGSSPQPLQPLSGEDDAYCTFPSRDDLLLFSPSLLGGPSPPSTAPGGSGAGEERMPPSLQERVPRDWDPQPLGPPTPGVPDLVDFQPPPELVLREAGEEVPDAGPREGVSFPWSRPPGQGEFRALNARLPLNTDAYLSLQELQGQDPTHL
method: cell-based or functional assay
We begin with a simple list: items and their reported Relative Proliferation Fold Change 3F8 1:10.
parameter: Relative Proliferation Fold Change 3F8 1:10 (fold)

T3P, SQVLKA (ligand) APPSSSTKKTQLQLSQLLVLLKAILNGINNYKNPKLTRMLTFKFYMPKKATELKHLQCLEEELKPLEEVLNLAQSKNFHLRPRDLISNINVIVLELKGSETTFMCEYADETATIVEFLNRWITFCQSIISTLT | 42.8
L18G, SQVLKA (ligand) APTSSSTKKTQLQLSQLGVLLKAILNGINNYKNPKLTRMLTFKFYMPKKATELKHLQCLEEELKPLEEVLNLAQSKNFHLRPRDLISNINVIVLELKGSETTFMCEYADETATIVEFLNRWITFCQSIISTLT | 17
R38W, SQVLKA (ligand) APTSSSTKKTQLQLSQLLVLLKAILNGINNYKNPKLTWMLTFKFYMPKKATELKHLQCLEEELKPLEEVLNLAQSKNFHLRPRDLISNINVIVLELKGSETTFMCEYADETATIVEFLNRWITFCQSIISTLT | 57.3
SQVLWA (ligand) APTSSSTKKTQLQLSQLLVLLWAILNGINNYKNPKLTRMLTFKFYMPKKATELKHLQCLEEELKPLEEVLNLAQSKNFHLRPRDLISNINVIVLELKGSETTFMCEYADETATIVEFLNRWITFCQSIISTLT | 3.35
Q13W SQVLKA (ligand) APTSSSTKKTQLWLSQLLVLLKAILNGINNYKNPKLTRMLTFKFYMPKKATELKHLQCLEEELKPLEEVLNLAQSKNFHLRPRDLISNINVIVLELKGSETTFMCEYADETATIVEFLNRWITFCQSIISTLT | 22.2
L18M, SQVLKA (ligand) APTSSSTKKTQLQLSQLMVLLKAILNGINNYKNPKLTRMLTFKFYMPKKATELKHLQCLEEELKPLEEVLNLAQSKNFHLRPRDLISNINVIVLELKGSETTFMCEYADETATIVEFLNRWITFCQSIISTLT | 21.9
R81I, SQVLKA (ligand) APTSSSTKKTQLQLSQLLVLLKAILNGINNYKNPKLTRMLTFKFYMPKKATELKHLQCLEEELKPLEEVLNLAQSKNFHLIPRDLISNINVIVLELKGSETTFMCEYADETATIVEFLNRWITFCQSIISTLT | 48.8
